Each entry below carries its recorded IC50.
System: L. amazonensis axenic amastigotes
Assay: Anti-amastigote effect on axenic amastigotes, MTT
Type: cell-based, Leishmania amazonensis
Conditions: L. amazonensis axenic amastigotes, 24 h, MTT
Observed property: IC50

INSERT INTO assay_data (structure_as_smiles, result) VALUES
  ('N#CC1=CC2(c3ccccc3Nc3ccccc32)N(c2ccc(Cl)cc2)C1=O', '10.5 µM'),
  ('COc1ccc(/C=N/N2C(=O)C(C#N)=CC23c2ccccc2Nc2ccccc23)cc1', '13.5 µM');

* * *

Assay: Cytotoxic effect in J774 macrophage cultures, MTT
Type: cell-based
Conditions: mouse, J774A.1 macrophages, read-out: CC50 (50% cytotoxic concentration in J774 macrophage)
Observed property: CC50 at 2 h (µM)

INSERT INTO results (compound, quantitative_readout) VALUES
  ('C[C@@H]1[C@H](O)[C@@H](C)/C=C/C=C/C=C/C=C/C=C/C=C/C=C/[C@H](O[C@@H]2O[C@H](C)[C@@H](O)[C@H](N)[C@@H]2O)C[C@@H]2O[C@](O)(C[C@@H](O)C[C@@H](O)[C@H](O)CC[C@@H](O)C[C@@H](O)CC(=O)O[C@H]1C)C[C@H](O)[C@H]2C(=O)O [ANFO B, Amphotericin B, reference compound]', 3.09);
